Biological target: PPARα (Homo sapiens, UniProt Q07869)
Construct: PPARα (aa 167 to 469); made in house; host or cells: E. coli BL21 (pLysS)
Sequence (Q07869 167-468 limits assumed): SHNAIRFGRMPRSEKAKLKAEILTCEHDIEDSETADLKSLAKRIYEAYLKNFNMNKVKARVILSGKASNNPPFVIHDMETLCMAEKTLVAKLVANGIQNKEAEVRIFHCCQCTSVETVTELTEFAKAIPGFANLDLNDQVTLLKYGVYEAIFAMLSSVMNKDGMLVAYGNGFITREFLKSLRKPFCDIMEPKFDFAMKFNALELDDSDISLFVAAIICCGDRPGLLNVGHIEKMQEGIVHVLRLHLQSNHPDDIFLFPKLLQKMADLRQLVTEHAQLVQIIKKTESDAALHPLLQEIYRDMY
Assay: Radioligand binding assay (SPA), PPARα receptor binding
Conditions: GST-PPARα-LBD fusion protein, scintillation proximity radioligand binding
Provide the recorded pIC50 for the entries that follow.
One number for each entry, as −log10 of the molar value.

Some solved cases for reference:
smiles_code: Cc1cc(OCCC#Cc2ccc(OC(F)(F)F)cc2)ccc1OC(C)(C)C(=O)O
measured_on: PPARα (Homo sapiens, UniProt Q07869)
pIC50: 7.74
//
smiles_code: Cc1cc(SCCCC#Cc2ccc(OC(F)(F)F)cc2)ccc1OCC(=O)O
measured_on: PPARα (Homo sapiens, UniProt Q07869)
pIC50: 7.85

Looking for the measured pIC50 of `Cc1cc(OCCCC#Cc2ccc(OC(F)(F)F)cc2)ccc1OC(C)(C)C(=O)O` , can you help?
7.68

###

For each record, write down the corresponding pIC50.
Molecular target: PPARδ (Homo sapiens, UniProt Q03181)
Construct: PPARδ (aa 139 to 442)
Sequence (Q03181 139-441 limits assumed): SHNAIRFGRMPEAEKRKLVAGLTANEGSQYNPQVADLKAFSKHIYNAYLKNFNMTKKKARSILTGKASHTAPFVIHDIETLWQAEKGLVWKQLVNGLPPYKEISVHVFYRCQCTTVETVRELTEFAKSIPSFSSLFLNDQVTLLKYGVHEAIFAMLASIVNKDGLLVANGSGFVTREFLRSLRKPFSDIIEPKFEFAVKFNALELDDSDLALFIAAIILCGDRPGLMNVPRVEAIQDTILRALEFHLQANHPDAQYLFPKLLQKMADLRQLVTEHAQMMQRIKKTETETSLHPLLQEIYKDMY
Experiment: Radioligand binding assay (SPA), PPARδ receptor binding
Settings: GST-PPARδ-LBD fusion protein, scintillation proximity radioligand binding
One number for each entry, as −log10 of the molar value.

Some compounds with known pIC50 results, for comparison:
smiles_code: Cc1cc(OCCC#Cc2ccc(OC(F)(F)F)cc2)ccc1OC(C)(C)C(=O)O
measured_on: PPARδ (Homo sapiens, UniProt Q03181)
pIC50: 6.69
//
smiles_code: Cc1cc(SCCCC#Cc2ccc(OC(F)(F)F)cc2)ccc1OCC(=O)O
measured_on: PPARδ (Homo sapiens, UniProt Q03181)
pIC50: 7.41

Then there is this compound:
# input compound: `Cc1cc(OCCCC#Cc2ccc(OC(F)(F)F)cc2)ccc1OC(C)(C)C(=O)O` ; wanted: its pIC50
6.92

###

Please go through the items and note down their melting point.

Consider the worked cases shown below.
smiles_code: COc1ccc(C#CCSc2ccc(OCC(=O)O)c(C)c2)cc1
metric: melting point
value_measured: 143 to 144 °C
--
smiles_code: Cc1cc(SCC#Cc2cccc(C(F)(F)F)c2)ccc1OCC(=O)O
metric: melting point
value_measured: 81 to 82 °C
--
smiles_code: Cc1cc(OCCCC#Cc2ccc(Cl)cc2)ccc1OC(C)(C)C(=O)O
metric: melting point
value_measured: 119 to 120 °C (dec.)

Below is a list of molecules. For each, state its recorded melting point.
1. Cc1cc(OCCCC#Cc2ccc(OC(F)(F)F)cc2)ccc1OCC(=O)O
2. Cc1cc(SCC#Cc2ccc(C(F)(F)F)cc2)ccc1OCC(=O)O
3. Cc1cc(OCCCC#Cc2ccc(OC(F)(F)F)cc2)ccc1OC(C)(C)C(=O)O
4. Cc1cc(SCC#Cc2ccccc2)ccc1OCC(=O)O
5. Cc1cc(OCCC#Cc2ccc(OC(F)(F)F)cc2)ccc1OC(C)(C)C(=O)O

1. 124.6 to 126.7 °C
2. 130 to 131 °C
3. 90 to 91 °C (dec.)
4. 90 to 92 °C
5. 62 to 71 °C (dec.)
